# Assay Protocol: Minimum inhibitory concentration against Streptococcus pyogenes 930MLSB
# Assay type: functional
Observed Property: MIC (µg/mL)

[P] CC[C@H]1OC(=O)[C@H](C)C(=O)[C@H](C)[C@@H](O[C@@H]2O[C@H](C)C[C@H](N(C)C)[C@H]2O)[C@](C)(OC/C=C/c2ccc3nccnc3c2)C[C@@H](C)C(=O)[C@H](C)[C@H]2NC(=O)O[C@@]21C
[Q] CC[C@H]1OC(=O)[C@H](C)[C@@H](O[C@H]2C[C@@](C)(OC)[C@@H](O)[C@H](C)O2)[C@H](C)[C@@H](O[C@@H]2O[C@H](C)C[C@H](N(C)C)[C@H]2O)[C@](C)(OC/C=C/c2cnc3ccccc3c2)C[C@@H](C)C(=O)[C@H](C)[C@H]2NC(=O)O[C@@]21C
*Q* Please tell me which of the two, P or Q , has the higher reported MIC value. To answer, give the label that identifies your chosen option.
*A* Q

###

# System: Staphylococcus aureus
# Assay Protocol: Minimum inhibitory concentration against Staphylococcus aureus ATCC 6538PEry-S
# Assay type: functional
# Measurement Parameters: ATCC 6538P
Observed Property: MIC (µg/mL)

[I] CC[C@H]1OC(=O)[C@H](C)C(=O)[C@H](C)[C@@H](O[C@@H]2O[C@H](C)C[C@H](N(C)C)[C@H]2O)[C@](C)(OC/C=C/c2ccc3ccccc3c2)C[C@@H](C)C(=O)[C@H](C)[C@H]2NC(=O)O[C@@]21C
[II] CC[C@H]1OC(=O)[C@H](C)C(=O)[C@H](C)[C@@H](O[C@@H]2O[C@H](C)C[C@H](N(C)C)[C@H]2O)[C@](C)(OC/C=C/c2cnc3ccsc3c2)C[C@@H](C)C(=O)[C@H](C)[C@H]2NC(=O)O[C@@]21C
*Q* For this pair, I and II , which shows a numerically higher MIC? # respond with the chosen item's label
*A* I

###

# Tested on: Streptococcus pneumoniae
# Assay Protocol: Cell free inhibiting activity against erythromycin-susceptible strain Streptococcus pneumoniae 5635 (Wild type ribosomes for transcription/translation assay)
# Format: functional
Observed Property: IC50 (nM)

| Structure Smiles String | IC50 / nM |
| --- | --- |
| C=CCO[C@]1(C)C[C@@H](C)C(=O)[C@H](C)[C@H]2NC(=O)O[C@]2(C)[C@@H](CC)OC(=O)[C@H](C)C(=O)[C@H](C)[C@H]1O[C@@H]1O[C@H](C)C[C@H](N(C)C)[C@H]1O | 350 |
| CC[C@H]1OC(=O)[C@H](C)[C@@H](O[C@H]2C[C@@](C)(OC)[C@@H](O)[C@H](C)O2)[C@H](C)[C@@H](O[C@@H]2O[C@H](C)C[C@H](N(C)C)[C@H]2O)[C@](C)(O)C[C@@H](C)C(=O)[C@H](C)[C@@H](O)[C@]1(C)O | 120 |

[I] CC[C@H]1OC(=O)[C@H](C)C(=O)[C@H](C)[C@@H](O[C@@H]2O[C@H](C)C[C@H](N(C)C)[C@H]2O)[C@](C)(OC/C=C/c2cnc3ccsc3c2)C[C@@H](C)C(=O)[C@H](C)[C@H]2NC(=O)O[C@@]21C
[II] C=CCO[C@]1(C)C[C@@H](C)C(=O)[C@H](C)[C@@H](O)[C@](C)(O)[C@@H](CC)OC(=O)[C@H](C)[C@@H](O[C@H]2C[C@@](C)(OC)[C@@H](O)[C@H](C)O2)[C@H](C)[C@H]1O[C@@H]1O[C@H](C)C[C@H](N(C)C)[C@H]1O
*Q* Select the item whose IC50 value is smaller, choosing between I and II . Lab note: record the label of whichever item you select.
*A* I
(I: 70 nM, II: 150 nM)
